# assayComment: Soluble peptide degradation, Cells condition (LC-MS)
# Format: in vitro ADME, human
# conditions: human, hUVECs in culture with fresh media (Cells condition); Figure 2B heatmap; pooled TAILS-derived soluble peptides in media on hUVECs (75000 per well, 48 well plate, 500 µL); 24 h; LC-MS, ratio to βFβA6 internal standard, 24 h / 0 h; N = 5; read-out: Fraction of peptide remaining at 24 hours: hUVEC Cells
Where a SMILES comes first, the peptide text is derived from it. [ ]: non-standard residue; d: D form. βAla = NCCC(=O)O
propertyMeasured: remaining at 24 h (%)
Please give a number only; it is taken to be in %.

Q: So what's the measured remaining at 24 h for this one? CC(=O)NCCC(=O)N[C@@H](CCC(=O)O)C(=O)N[C@@H](CO)C(=O)N[C@@H](CO)C(=O)N[C@@H](Cc1c[nH]cn1)C(=O)N[C@@H](CC(N)=O)C(=O)N[C@H](C(=O)N[C@@H](Cc1ccc(O)cc1)C(=O)N[C@@H](CC(C)C)C(=O)N[C@H](C(=O)N[C@@H](CCC(N)=O)C(=O)NCCC(N)=O)[C@@H](C)O)[C@@H](C)O [ESSHNTYLTQ] (Ac-[βAla]ESSHNTYLTQ[βAla]-NH2)
Result: 100

Q: What does the record list as remaining at 24 h for CSCC[C@H](NC(=O)[C@H](CCC(=O)O)NC(=O)CNC(=O)[C@H](Cc1ccccc1)NC(=O)[C@H](CO)NC(=O)[C@H](Cc1ccc(O)cc1)NC(=O)[C@@H](NC(=O)[C@H](CCC(=O)O)NC(=O)CCNC(C)=O)C(C)C)C(=O)N1CCC[C@H]1C(=O)N[C@@H](Cc1c[nH]c2ccccc12)C(=O)NCCC(N)=O [EVYSFGEMPW] (Ac-[βAla]EVYSFGEMPW[βAla]-NH2) ?
Result: 70

Q: Reported remaining at 24 h for CC(=O)NCCC(=O)N[C@@H](CCCCN)C(=O)N[C@@H](C)C(=O)N1CCC[C@H]1C(=O)NCC(=O)NCC(=O)N[C@@H](CCCCN)C(=O)N[C@@H](C)C(=O)N[C@@H](C)C(=O)NCC(=O)N1CCC[C@H]1C(=O)N[C@@H](C)C(=O)NCCC(N)=O [KAPGGKAAGPA] (Ac-[βAla]KAPGGKAAGPA[βAla]-NH2) : what is it?
Result: 71

Q: What value of measured remaining at 24 h is listed for CC[C@H](C)[C@H](NC(=O)[C@@H](NC(=O)[C@H](CCSC)NC(=O)[C@@H]1CCCN1C(=O)[C@H](CCCCN)NC(=O)[C@H](CCCCN)NC(=O)CCNC(C)=O)[C@@H](C)O)C(=O)N[C@@H](C)C(=O)N[C@@H](CCCNC(=N)N)C(=O)N[C@@H](CC(C)C)C(=O)N[C@@H](CC(N)=O)C(=O)N[C@@H](C)C(=O)N[C@@H](CCCCN)C(=O)N[C@@H](CCCCN)C(=O)NCCC(N)=O [KKPMTIARLNAKK] (Ac-[βAla]KKPMTIARLNAKK[βAla]-NH2) ?
Result: 73

Q: Given CC(=O)NCCC(=O)N[C@@H](CC(C)C)C(=O)N[C@@H](C)C(=O)N[C@@H](CC(C)C)C(=O)N[C@@H](CCC(=O)O)C(=O)N[C@@H](C)C(=O)N[C@@H](CCCNC(=N)N)C(=O)N[C@H](C(=O)N[C@H](C(=O)N[C@@H](CC(=O)O)C(=O)N[C@@H](CC(C)C)C(=O)NCCC(N)=O)[C@@H](C)O)[C@@H](C)O [LALEARTTDL] (Ac-[βAla]LALEARTTDL[βAla]-NH2) , state its recorded remaining at 24 h.
Result: 94

Q: Returns the measured remaining at 24 h for the input compound. Input: CC[C@H](C)[C@H](NC(=O)[C@H](CCC(=O)O)NC(=O)[C@H](C)NC(=O)[C@H](CC(C)C)NC(=O)[C@H](C)NC(=O)[C@H](CC(=O)O)NC(=O)CCNC(C)=O)C(=O)N[C@@H](CC(C)C)C(=O)N[C@@H](CCC(N)=O)C(=O)N[C@@H](C)C(=O)N[C@@H](CC(N)=O)C(=O)N[C@@H](CC(=O)O)C(=O)NCCC(N)=O [DALAEILQAND] (Ac-[βAla]DALAEILQAND[βAla]-NH2)
Result: 84

###

# assayComment: Soluble peptide degradation, Media condition (cell-conditioned media, LC-MS)
# Type: in vitro ADME, human
# conditions: human, cells or culture medium; Figure 3B heatmap; split-and-pool libraries KLVADX1X2ASAE in hMSC-conditioned media without cells; 24 h; LC-MS, ratio to βFβA6; N = 2; read-out: Fraction of peptide remaining after 24 hours: hMSC Media
Where a SMILES comes first, the peptide text is derived from it. [ ]: non-standard residue; d: D form. βAla = NCCC(=O)O
propertyMeasured: remaining at 24 h (%)
# unit: % | format: bare number

Q: Please look up its remaining at 24 h: CC(=O)NCCC(=O)N[C@@H](CCCCN)C(=O)N[C@@H](CC(C)C)C(=O)N[C@H](C(=O)N[C@@H](C)C(=O)N[C@@H](CC(=O)O)C(=O)N[C@@H](CC(N)=O)C(=O)N1CCC[C@H]1C(=O)N[C@@H](C)C(=O)N[C@@H](CO)C(=O)N[C@@H](C)C(=O)N[C@@H](CCC(=O)O)C(=O)NCCC(N)=O)C(C)C [Asn-Pro] (Ac-[βAla]KLVADNPASAE[βAla]-NH2)
Result: 84

###

# assayComment: Soluble peptide degradation, Media condition (cell-conditioned media, LC-MS)
# Format: in vitro ADME, human
# conditions: human, hMSC-conditioned media without cells (Media condition); Figure 3C; individually synthesized soluble peptide, 50 µM, hMSC-conditioned media without cells; 24 h; LC-MS, ratio to βFβA6; N = 6; read-out: Fraction of peptide remaining after 24 hours: hMSC Media
Where a SMILES comes first, the peptide text is derived from it. [ ]: non-standard residue; d: D form. βAla = NCCC(=O)O
propertyMeasured: remaining at 24 h, 50 µM (%)
Give the quantity in %, number only.

Q: Name the reported remaining at 24 h, 50 µM value associated with the compound CC(=O)NCCC(=O)N[C@@H](CCCCN)C(=O)N[C@@H](CC(C)C)C(=O)N[C@H](C(=O)N[C@@H](C)C(=O)N[C@@H](CC(=O)O)C(=O)N1CCC[C@H]1C(=O)N[C@@H](Cc1ccc(O)cc1)C(=O)N[C@@H](C)C(=O)N[C@@H](CO)C(=O)N[C@@H](C)C(=O)N[C@@H](CCC(=O)O)C(=O)NCCC(N)=O)C(C)C [KLVAD-PY] (Ac-[βAla]KLVADPYASAE[βAla]-NH2)
Result: 96

###

Please provide measured remaining at 24 h for the entries that follow.
# assayComment: Soluble peptide degradation, Cells condition (LC-MS)
# Format: in vitro ADME, human
# conditions: human, hUVECs in culture with fresh media (Cells condition); Figure 2B heatmap; pooled TAILS-derived soluble peptides in media on hUVECs (75000 per well, 48 well plate, 500 µL); 24 h; LC-MS, ratio to βFβA6 internal standard, 24 h / 0 h; N = 5; read-out: Fraction of peptide remaining at 24 hours: hUVEC Cells
Where a SMILES comes first, the peptide text is derived from it. [ ]: non-standard residue; d: D form. βAla = NCCC(=O)O
A bare number is not enough; add the unit after it.

Q: I would be grateful if you could share the reported remaining at 24 h for CC[C@H](C)[C@H](NC(=O)CNC(=O)[C@H](CCC(N)=O)NC(=O)[C@@H]1CCCN1C(=O)CNC(=O)CCNC(C)=O)C(=O)N[C@@H](Cc1c[nH]c2ccccc12)C(=O)NCC(=O)N[C@@H](CCC(N)=O)C(=O)NCCC(N)=O [PanMMP, reference compound] (Ac-[βAla]GPQGIWGQ[βAla]-NH2) .
Result: 69%

Q: Find the recorded remaining at 24 h belonging to CC(=O)NCCC(=O)N[C@@H](CCCCN)C(=O)N[C@@H](CC(C)C)C(=O)N[C@H](C(=O)N[C@@H](C)C(=O)N[C@@H](CC(=O)O)C(=O)N[C@@H](CC(N)=O)C(=O)N[C@@H](Cc1ccc(O)cc1)C(=O)N[C@@H](C)C(=O)N[C@@H](CO)C(=O)N[C@@H](C)C(=O)N[C@@H](CCC(=O)O)C(=O)NCCC(N)=O)C(C)C [KLVAD-NY] (Ac-[βAla]KLVADNYASAE[βAla]-NH2) and report it.
Result: 92%

Q: May I ask what remaining at 24 h has been recorded for CC[C@H](C)[C@H](NC(=O)[C@H](CCCCN)NC(=O)[C@@H](NC(=O)[C@H](CO)NC(=O)[C@H](CO)NC(=O)[C@@H]1CCCN1C(=O)CCNC(C)=O)[C@@H](C)CC)C(=O)N[C@@H](CCCCN)C(=O)N[C@@H](CO)C(=O)N[C@@H](C)C(=O)N[C@@H](CC(=O)O)C(=O)N[C@@H](CCCCN)C(=O)NCCC(N)=O [PSSIKIKSADK] (Ac-[βAla]PSSIKIKSADK[βAla]-NH2) ?
Result: 86%

From: paper PMC12683216
